activation at 1 µM values, listed per item
- assaySystem: PKR R510Q (Homo sapiens, UniProt P30613, R510Q)
- Sequence (P30613 whole entry R510Q): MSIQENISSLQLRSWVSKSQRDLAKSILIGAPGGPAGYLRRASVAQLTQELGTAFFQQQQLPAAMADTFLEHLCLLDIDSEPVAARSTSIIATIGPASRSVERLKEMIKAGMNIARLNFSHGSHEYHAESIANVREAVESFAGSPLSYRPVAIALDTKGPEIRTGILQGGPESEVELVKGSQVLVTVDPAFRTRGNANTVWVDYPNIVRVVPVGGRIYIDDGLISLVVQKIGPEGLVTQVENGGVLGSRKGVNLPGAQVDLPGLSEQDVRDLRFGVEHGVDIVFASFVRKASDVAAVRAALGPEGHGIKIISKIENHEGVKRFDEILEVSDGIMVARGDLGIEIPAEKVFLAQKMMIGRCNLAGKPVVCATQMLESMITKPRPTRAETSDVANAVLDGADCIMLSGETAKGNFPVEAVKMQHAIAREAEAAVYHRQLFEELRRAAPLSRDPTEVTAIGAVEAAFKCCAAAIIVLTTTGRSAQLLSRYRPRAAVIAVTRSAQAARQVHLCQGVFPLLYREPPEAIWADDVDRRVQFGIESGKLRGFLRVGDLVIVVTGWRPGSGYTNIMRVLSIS
- assaySummary: PKR R510Q Single Point Percent Activation Assay
- Assay type: biochemical
- experimentalContext: read-out: Act. % 510Q
outcomeMeasure: activation at 1 µM

>>> df
                                    compound       result
 0  O=C(c1ccc(NS(=O)(=O)c2cccc3cccnc23)cc1)N1C2CCC1CN(Cc1ccc(F)cc1)C2  101 to 500%
 1  C[C@@H]1CN(C(=O)c2ccc(NS(=O)(=O)c3cccc4cccnc34)cc2)CCN1Cc1ccccc1  101 to 500%
 2  C[C@H]1CN(CC2CCOC2)CCN1C(=O)c1ccc(NS(=O)(=O)c2cccc3cccnc23)cc1 (some centres unmarked)  101 to 500%
 3  C[C@@H]1CN(Cc2ccc(F)cc2)CCN1C(=O)c1ccc(NS(=O)(=O)c2cccc3cccnc23)cc1    1 to 100%
 4  C[C@@H]1CN(Cc2cc(F)cc(F)c2)CCN1C(=O)c1ccc(NS(=O)(=O)c2cccc3cccnc23)cc1    1 to 100%
 5  C[C@H]1CN(CC2CCOC2)CCN1C(=O)c1ccc(NS(=O)(=O)c2cccc3cccnc23)cc1Cl (some centres unmarked)    1 to 100%
 6  CC(c1cc(F)c(F)c(F)c1)N1CCN(C(=O)c2ccc(NS(=O)(=O)c3cccc4cccnc34)cc2)[C@H](C)C1 (some centres unmarked)  101 to 500%
 7  CC(c1c(F)cc(F)cc1F)N1CCN(C(=O)c2ccc(NS(=O)(=O)c3cccc4cccnc34)cc2)[C@@H](C)C1 (some centres unmarked)  101 to 500%
 8  COc1ccccc1N1CCN(C(=O)c2ccc(NS(=O)(=O)c3cccc4cccnc34)cc2)C(C)C1 (centres unmarked)  101 to 500%
 9  CC1CN(Cc2ccccc2)CC(C)N1C(=O)c1ccc(NS(=O)(=O)c2cccc3cccnc23)cc1 (centres unmarked)  101 to 500%
10  C[C@H]1CN(Cc2c(F)cc(F)cc2F)CCN1C(=O)c1ccc(NS(=O)(=O)c2cccc3cccnc23)cc1Cl  101 to 500%
11  C[C@@H]1CN(C(=O)c2ccc(NS(=O)(=O)c3cccc4cccnc34)cc2)C[C@H](C)N1C(=O)c1ccccn1  101 to 500%
12  CCOC(=O)N1CCN(C(=O)c2ccc(NS(=O)(=O)c3cccc4cccnc34)cc2)c2ccccc21  101 to 500%
13  CC(C)[C@H]1CN(C(C)c2ccc(F)cc2)CCN1C(=O)c1ccc(NS(=O)(=O)c2cccc3cccnc23)cc1 (some centres unmarked)    1 to 100%
14  C[C@H]1CN(Cc2c(F)ccc(F)c2F)CCN1C(=O)c1ccc(NS(=O)(=O)c2cccc3cccnc23)cc1    1 to 100%
15  C[C@H]1CN(CC2CCCCO2)CCN1C(=O)c1ccc(NS(=O)(=O)c2cccc3cccnc23)cc1 (some centres unmarked)    1 to 100%
16  C[C@@H]1CN(C(=O)c2ccccn2)C[C@H](C)N1C(=O)c1ccc(NS(=O)(=O)c2cccc3cccnc23)cc1    1 to 100%
17  CC1CN(Cc2ccc(F)cc2)CC(C)N1C(=O)c1ccc(NS(=O)(=O)c2cccc3cccnc23)cc1 (centres unmarked)    1 to 100%
18  C[C@H]1CN(Cc2ccccc2F)CCN1C(=O)c1ccc(NS(=O)(=O)c2cccc3cccnc23)cc1    1 to 100%
19  CC(c1c(F)cccc1F)N1CCN(C(=O)c2ccc(NS(=O)(=O)c3cccc4cccnc34)cc2)[C@H](C)C1 (some centres unmarked)  101 to 500%
20  C[C@H]1CN(Cc2ccc(F)cc2)CCN1C(=O)c1ccc(NS(=O)(=O)c2cccc3cccnc23)cc1Cl    1 to 100%
21  C[C@H]1CN(Cc2ccc(F)c(F)c2F)CCN1C(=O)c1ccc(NS(=O)(=O)c2cccc3cccnc23)cc1 [drawing 66]    1 to 100%
22  C[C@H]1CN(Cc2cc(F)c(F)c(F)c2)CCN1C(=O)c1ccc(NS(=O)(=O)c2cccc3cccnc23)cc1    1 to 100%
